Reference source: patent US20230047413A1

Study system: T1, Peptide-2 (human, phosphothreonine 212, phosphothreonine 217 (tau 2N4R numbering); short chain biotin (SCBiot) and dPEG4 at the N-terminus; amide at the C-terminus)
T1 construct: also called pT212/pT217-tau peptide (Peptide-2)
T1 sequence (peptide, as listed by the source): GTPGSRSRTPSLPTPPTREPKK
Assay protocol: SPR ProteOn, mAb captured, peptide as analyte; range of n=2; upper end of n=2 range
Quantity: kon (M⁻¹ s⁻¹)
# value in M⁻¹ s⁻¹; strip the unit string

Enquiry: So what's the measured kon for this one? B282 (antibody, human IgG1, V domains shown, Humanized (HFA) PT3 variant, human IgG1/kappa; also called VH93/VL77) VH: QVQLVESGGGLVKPGGSLRLSCAASGFTFSSYAMSWIRQAPGKGLEWVSSISKGGNTYYADSVKGRFTISRDNAKNSLYLQMNSLRAEDTAVYYCARGWGDYGWFAYWGQVTLVTVSS VL: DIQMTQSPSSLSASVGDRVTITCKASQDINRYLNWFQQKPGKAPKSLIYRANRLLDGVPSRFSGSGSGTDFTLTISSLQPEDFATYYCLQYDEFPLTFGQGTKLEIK
Return: 3.89e+06

Enquiry: So what's the measured kon for this one? B252 (antibody, human IgG1, V domains shown, Humanized (HFA) PT3 variant, human IgG1/kappa; also called VH93/VL80) VH: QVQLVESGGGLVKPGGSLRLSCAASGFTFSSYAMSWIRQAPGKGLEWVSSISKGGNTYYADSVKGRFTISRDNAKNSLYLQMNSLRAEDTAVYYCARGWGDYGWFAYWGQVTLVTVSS VL: DIVMTQTPLSSPVTLGQPASISCKASQDINRYLNWLQQRPGQPPRLLIYRANRLLDGVPDRFSGSGAGTDFTLKISRVEAEDVGVYYCLQYDEFPLTFGQGTKLEIK
Return: 7.54e+06

Enquiry: So what's the measured kon for this one? B296 (antibody, human IgG1, kappa, V domains shown, Humanized PT3, human IgG1/kappa; also called VH92/VL77; HFA-PT3) VH: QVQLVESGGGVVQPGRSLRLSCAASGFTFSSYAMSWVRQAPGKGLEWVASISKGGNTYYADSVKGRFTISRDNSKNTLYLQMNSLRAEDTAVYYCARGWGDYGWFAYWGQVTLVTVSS VL: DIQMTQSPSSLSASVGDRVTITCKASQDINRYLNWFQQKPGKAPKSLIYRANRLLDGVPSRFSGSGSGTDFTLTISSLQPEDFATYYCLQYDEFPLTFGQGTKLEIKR
Return: 6.9e+06

Enquiry: So what's the measured kon for this one? B235 (antibody, human IgG1, V domains shown, Humanized (HFA) PT3 variant, human IgG1/kappa; also called VH91/VL77) VH: EVQLLESGGGLVQPGGSLRLSCAASGFTFSSYAMSWVRQAPGKGLEWVSSISKGGNTYYADSVKGRFTISRDNSKNTLYLQMNSLRAEDTAVYYCAKGWGDYGWFAYWGQVTLVTVSS VL: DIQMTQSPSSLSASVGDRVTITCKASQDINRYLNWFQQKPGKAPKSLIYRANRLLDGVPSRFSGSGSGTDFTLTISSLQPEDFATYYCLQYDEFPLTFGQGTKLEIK
Return: 3.58e+06

Enquiry: So what's the measured kon for this one? B280 (antibody, human IgG1, V domains shown, Humanized (HFA) PT3 variant, human IgG1/kappa; also called VH91/VL80) VH: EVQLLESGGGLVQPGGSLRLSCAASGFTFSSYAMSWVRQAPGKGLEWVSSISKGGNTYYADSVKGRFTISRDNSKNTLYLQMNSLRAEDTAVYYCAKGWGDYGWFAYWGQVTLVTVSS VL: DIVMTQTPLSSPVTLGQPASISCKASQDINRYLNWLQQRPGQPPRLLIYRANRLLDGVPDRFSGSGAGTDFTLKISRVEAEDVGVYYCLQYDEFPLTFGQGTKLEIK
Return: 7.2e+06
